// composite z-score lookup, one value per entry
testTarget: E3 ubiquitin-protein ligase XIAP (Homo sapiens) (UniProt P98170)
Sequence (P98170 whole entry, looked up): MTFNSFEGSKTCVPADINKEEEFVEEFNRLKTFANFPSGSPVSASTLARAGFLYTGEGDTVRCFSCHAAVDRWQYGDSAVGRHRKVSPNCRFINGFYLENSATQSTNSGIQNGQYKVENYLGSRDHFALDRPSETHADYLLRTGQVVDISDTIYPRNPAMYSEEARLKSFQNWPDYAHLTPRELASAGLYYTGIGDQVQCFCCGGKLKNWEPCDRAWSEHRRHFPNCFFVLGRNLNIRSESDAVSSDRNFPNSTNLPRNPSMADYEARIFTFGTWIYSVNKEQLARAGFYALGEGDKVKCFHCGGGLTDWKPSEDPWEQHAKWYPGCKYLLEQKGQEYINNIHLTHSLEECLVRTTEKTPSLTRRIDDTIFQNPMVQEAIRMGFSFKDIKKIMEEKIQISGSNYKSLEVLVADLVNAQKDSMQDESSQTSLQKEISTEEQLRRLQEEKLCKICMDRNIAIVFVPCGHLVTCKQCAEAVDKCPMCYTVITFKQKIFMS
assayNotes: XIAP binders, primary screen, biophysical, small-molecule microarray, fluorescence 635 nm (AID 1181);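 further: score merges 667 nm emission and signal to noise over triplicate slides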
conditionNotes: small-molecule microarray binding, higher = more signal

| compound | composite z-score |
| --- | --- |
| CN(C)C(=O)[C@]1(CCS(=O)(=O)c2ccccc2)N=C(c2ccc(OCCCO)cc2)O[C@@H]1c1ccccc1 | 0.0651 |
| CO[C@H]1O[C@H](CO)[C@@H](OC(=O)CCc2ccccc2)[C@H](OC(=O)c2cc3ccccc3[nH]2)[C@H]1OC(=O)c1cc2ccccc2[nH]1 | -0.156 |
| CN(C)CCCC[C@@H]1NC(=O)[C@@H]2C[C@H](C(=O)O)[C@H](c3cccc(OCCO)c3)N2C1=O | -0.0398 |
| C=CCNC(=O)[C@@H]1[C@H]2C(=O)O[C@H](c3ccccc3)[C@H](c3ccccc3)N2[C@H](c2ccc(O)cc2)[C@@]12C(=O)Nc1ccc(C#CCC(C(=O)OC)C(=O)OC)cc12 | -0.274 |
| COc1cc(C(O)C2C=CC3C(=O)N(Cc4ccccc4)C(=O)C3N2n2cnnc2)cc(OC)c1OC (stereo not given) | 0.0546 |
| CCOC(=O)C[C@H]1[C@H](OC(=O)c2ccc(-c3ccccc3)cc2)[C@@H](NC(=O)CC(C)C)c2cc(OCCCO)ccc2N1C(=O)c1ccccc1 | -0.0559 |
| CC(C)C(=C=CC[C@@H](O)c1cccc(OCCO)c1)C[C@@H](O)c1ccccn1 | 0.127 |
| COc1ccc([Si](C)(C)[C@H]2[C@H](CC(=O)N3Cc4ccccc4C[C@H]3CO)O[C@@]3(C(=O)N(Cc4ccc(N5C(=O)c6cccc7cccc5c67)cc4)c4ccccc43)[C@@H]2C)cc1 | -0.063 |
| C=CCC(OC(C)=O)[C@@H]1[C@@H](N(Cc2cccc3ccccc23)C(=O)Cc2ccc(F)cc2)c2cc(OCCCO)ccc2N1C(=O)c1ccc(-c2ccccc2)cc1 (stereo not given in full) | 0.0623 |
| NC(=O)[C@@H]1[C@H]2C(=O)O[C@H](c3ccccc3)[C@H](c3ccccc3)N2[C@H](c2ccc(OCCO)cc2)[C@@]12C(=O)Nc1ccc(C#CCCO)cc12 | 0.216 |
| COc1cc2c(cc1O)C(c1cccs1)N(Cc1sc3ccccc3c1Cl)CC2 (stereo not given) | 0.134 |
| COCCOC(=O)N1C(=O)[C@@]2(c3cc(C#Cc4ccc(OC)cc4)ccc31)[C@H](C(=O)NC[C@H](O)c1ccccc1)[C@H]1C(=O)O[C@H](c3ccccc3)[C@H](c3ccccc3)N1[C@@H]2c1ccc(OCCO)cc1 | -0.0883 |
| CCN(CC)c1ccc(N2CC=CC34O[C@@H]5/C=C\CCC(C)OC(=O)C5[C@H]3C(=O)N(C(C)CO)[C@@H]4C2=O)cc1 (stereo not given in full) | 0.0727 |
| COCCOC(=O)N1C(=O)[C@@]2(c3cc(C#CC4(O)CCCCCC4)ccc31)[C@H](C(=O)N1CCN(c3ncccn3)CC1)[C@H]1C(=O)O[C@H](c3ccccc3)[C@H](c3ccccc3)N1[C@@H]2c1ccccc1OCCO | -0.068 |
| COCCOC(=O)N1C(=O)[C@@]2(c3cc(C#CC4(O)CCCCCC4)ccc31)[C@H](c1ccc(OCCO)cc1)N1[C@H](c3ccccc3)[C@H](c3ccccc3)OC(=O)[C@H]1[C@@H]2C(=O)Nc1nc2ccccc2s1 | 0.332 |
| CCCCCCCCCCC(O)C1C=CC2C(=O)N(c3ccccc3)C(=O)C2N1Nc1ccccc1F (stereo not given) | 0.174 |
| C[C@]1(C(=O)NCCN2CCOCC2)c2ccccc2C(=O)N(Cc2cc(F)cc(C(F)(F)F)c2)[C@H]1c1ccc(CO)cc1 | -0.116 |
| CCOC(=O)C1=CCC(c2ccco2)N(S(=O)(=O)c2ccc(C)cc2)C1 (stereo not given) | 0.424 |
| O=c1cccc(-c2ccc(F)cc2)o1 | -0.167 |
| CC(C)CNC(=O)[C@@]1(C)c2ccccc2C(=O)N(Cc2cc(C(F)(F)F)cc(C(F)(F)F)c2)[C@H]1c1ccc(CO)cc1 | -0.206 |
| COc1cc(NN2C(C(O)c3ccccc3)C=CC3C(=O)N(C)C(=O)C32)cc(OC)c1OC (stereo not given) | 0.0024 |
| CC1CC/C=C\[C@H]2OC34C=CCN(CCN5CCOCC5)C(=O)[C@H]3N(C(C)CO)C(=O)[C@@H]4C2C(=O)O1 (stereo not given in full) | -0.0807 |
| COc1ccc([Si](C)(C)[C@H]2[C@H](CCO)O[C@@]3(C(=O)N(Cc4ccccc4)c4ccc(N5C(=O)c6ccccc6Oc6ccccc65)cc43)[C@@H]2C)cc1 | -0.172 |
| Cc1cccc([C@H]2C[C@H]3C(Br)=C[C@@H]2C(=O)[C@]32CO2)c1 | 0.172 |
| CC(C)(C)OC(=O)CC[C@]12N=C(c3ccc(OCCCO)cc3)O[C@H]1c1ccccc1N(Cc1ccccc1)C2=O | 0.0968 |
